Tested on: Staphylococcus aureus
Test: Antibacterial activity against Staphylococcus aureus
Format: functional
compounds and their reported MIC
attribute-measured: MIC

In [3]: df
Out[3]:
                         chemical_structure     result
0  COc1ccc(NC(=O)c2cc3c(CO)cnc(C)c3o/c2=N\c2ccc(Cl)c(Cl)c2)c(OC)c1   50 µg/mL
1  CCc1ccc(NC(=O)c2cc3c(CO)cnc(C)c3o/c2=N\c2ccc3c(c2)OCO3)cc1  100 µg/mL
2  Cc1cc(C)cc(/N=c2\oc3c(C)ncc(CO)c3cc2C(=O)Nc2ccccc2C)c1  100 µg/mL
3  COc1ccc(/N=c2\oc3c(C)ncc(CO)c3cc2C(=O)Nc2cccc(C)c2)c(OC)c1   50 µg/mL
4  CCc1cccc(/N=c2\oc3c(C)ncc(CO)c3cc2C(=O)Nc2ccccc2)c1  100 µg/mL

* * *

Listing of entries alongside the reported MIC.
Test system: Candida albicans
Assay: Antifungal activity against Candida albicans
Type: functional
attribute-measured: MIC

>>> print(df.to_string())
                                    compound            system      result
 0  Cc1cc(C)cc(/N=c2\oc3c(C)ncc(CO)c3cc2C(=O)Nc2ccccc2C)c1  Candida albicans   100 µg/mL
 1  Cc1ccc(NC(=O)c2cc3c(CO)cnc(C)c3o/c2=N\c2ccc(Cl)c(Cl)c2)cc1  Candida albicans    25 µg/mL
 2  Cc1ccc(NC(=O)c2cc3c(CO)cnc(C)c3o/c2=N\c2ccc(Oc3ccccc3)cc2)cc1  Candida albicans  12.5 µg/mL
 3  COc1ccc(NC(=O)c2cc3c(CO)cnc(C)c3o/c2=N\c2ccc(Cl)c(Cl)c2)c(OC)c1  Candida albicans    50 µg/mL
 4  CCc1ccc(/N=c2\oc3c(C)ncc(CO)c3cc2C(=O)Nc2ccccc2)cc1  Candida albicans    50 µg/mL
 5  COc1cc(NC(=O)c2cc3c(CO)cnc(C)c3o/c2=N\c2ccc(C(N)=O)cc2)cc(OC)c1  Candida albicans    25 µg/mL
 6  Cc1ncc(CO)c2cc(C(=O)Nc3ccccc3F)/c(=N/c3ccc(C(F)(F)F)cc3)oc12  Candida albicans    25 µg/mL
 7  Cc1ncc(CO)c2cc(C(=O)Nc3ccccc3)/c(=N/c3ccc4c(c3)OCO4)oc12  Candida albicans    50 µg/mL
 8  OC(Cn1cncn1)(Cn1cncn1)c1ccc(F)cc1F [FLUCONAZOLE]  Candida albicans    50 µg/mL
 9  Cc1ccc(NC(=O)c2cc3c(CO)cnc(C)c3o/c2=N\c2ccccc2I)cc1  Candida albicans    50 µg/mL
10  CCOC(=O)c1ccc(/N=c2\oc3c(C)ncc(CO)c3cc2C(=O)Nc2ccccc2)cc1  Candida albicans    50 µg/mL
11  CCOc1ccc(/N=c2\oc3c(C)ncc(CO)c3cc2C(=O)Nc2cccc(C)c2)cc1  Candida albicans    50 µg/mL
12  COc1ccc(/N=c2\oc3c(C)ncc(CO)c3cc2C(=O)Nc2cccc(C)c2)cc1OC  Candida albicans    50 µg/mL
13  CCc1cccc(/N=c2\oc3c(C)ncc(CO)c3cc2C(=O)Nc2ccccc2)c1  Candida albicans   100 µg/mL
14  COc1ccc(NC(=O)c2cc3c(CO)cnc(C)c3o/c2=N\c2ccc(OC)c(OC)c2)c(OC)c1  Candida albicans    50 µg/mL
15  COc1cccc(/N=c2\oc3c(C)ncc(CO)c3cc2C(=O)Nc2ccc(C)cc2)c1  Candida albicans    50 µg/mL
